Kindly state Foxtail, Giant plant response rating for each of the entries shown.
Test system: giant foxtail
method.summary: Test A pre-/postemergence greenhouse test
Format: in vivo, Setaria faberi
test.context: Postemergence, 125 g ai/ha; 0 to 100 scale, 0 is no effect, 100 is complete control

input: Which measured Foxtail, Giant plant response rating value corresponds to CC(c1c(C(F)(F)F)nn(C)c1Cl)S(=O)(=O)c1ccc(Cl)c[n+]1[O-] (racemic) ?
output: 80

input: Given the compound Cc1cc[n+]([O-])c([S+]([O-])C(C)c2c(C(F)(F)F)nn(C)c2Cl)c1 (mixture of isomers) , what is its reported Foxtail, Giant plant response rating?
output: 0

input: Find the recorded Foxtail, Giant plant response rating belonging to CC(c1c(C(F)(F)F)nn(C)c1OCC(F)(F)F)S(=O)(=O)c1cccc[n+]1[O-] (racemic) and report it.
output: 90

input: Please give the measured Foxtail, Giant plant response rating for this compound: Cn1nc(C(F)(F)F)c(CS(=O)(=O)c2ccc(Cl)c[n+]2[O-])c1Cl
output: 60

* * *

Tested on: kochia
method.summary: Test C pre-/postemergence test
Format: in vivo, Kochia scoparia
test.context: Preemergence, 31 g ai/ha; scale 0 to 100 (0 no effect, 100 complete control)
assay.metric: Plant response rating, Kochia
Number only, please.

input: Param item = Cn1nc(C(F)(F)F)c(CS(=O)(=O)c2cccc[n+]2[O-])c1OCC(F)F [Compound 81] ; retrieve measured Plant response rating, Kochia.
output: 40

input: State the recorded Plant response rating, Kochia for this entry: Cn1nc(C(F)(F)C(F)(F)F)c(C[S+]([O-])c2ccc(Cl)c[n+]2[O-])c1OCC(F)(F)F (stereo not shown) [Compound 92]
output: 50

input: Looking for the measured Plant response rating, Kochia of Cn1nc(C(F)(F)F)c(C(Cl)S(=O)(=O)c2cccc[n+]2[O-])c1OCC(F)(F)F (racemic) [Compound 36] , can you help?
output: 0

input: What value of Plant response rating, Kochia has been reported for the following molecule? Cc1cc[n+]([O-])c([S+]([O-])Cc2c(C(F)(F)F)nn(C)c2OCC(F)(F)F)c1 (racemic) [Compound 30]
output: 100

input: Query: Plant response rating, Kochia; subject: Cn1nc(C(F)(F)F)c(CS(=O)(=O)c2cc(C(C)(C)C)cc[n+]2[O-])c1OC(F)F [Compound 25]
output: 0

input: Quick one: Plant response rating, Kochia for Cn1nc(C(F)(F)F)c(C[S+]([O-])c2ccc(F)c[n+]2[O-])c1OCC(F)(F)F (stereo not shown) [Compound 67] ?
output: 80

input: Report Plant response rating, Kochia for CCn1nc(C(F)(F)F)c(C[S+]([O-])c2cccc[n+]2[O-])c1OCC(F)(F)F (racemic) [Compound 65] please.
output: 100

* * *

Task for the reader: assign each of the following compounds its reported Plant response rating, Oat, Wild.
Test system: wild oat
method.summary: Test C pre-/postemergence test
Assay type: in vivo, Avena fatua
test.context: Postemergence, 125 g ai/ha; scale 0 to 100, 0 no effect, 100 complete control
The reply should be a number, written without any unit.

input: Report Plant response rating, Oat, Wild for CCn1nc(C(F)(F)F)c(C(C)S(=O)(=O)c2cccc[n+]2[O-])c1OCC(F)(F)F (stereo not shown) tested on wild oat.
output: 0

input: State its Plant response rating, Oat, Wild on wild oat: Cn1nc(C(F)(F)F)c(C[S+]([O-])c2cccc[n+]2[O-])c1OCC(F)(F)C(F)(F)F (stereo not shown)
output: 0

input: Give the reported Plant response rating, Oat, Wild for Cn1nc(C(F)(F)F)c(C[S+]([O-])c2cccc[n+]2[O-])c1OC(F)F (stereo not shown) (system: wild oat).
output: 0

input: # get_value(readout= Plant response rating, Oat, Wild, system= wild oat) for Cn1nc(C(F)(F)F)c(C[S+]([O-])c2ccc(Cl)c[n+]2[O-])c1OCC(F)(F)F (racemic)
output: 30

// data source = patent US20100298141A1
